Entry source: ChEMBL document CHEMBL3885861

Organism: Rattus norvegicus
Test: Open TG-GATES - Regimen: Daily Repeat
Type: toxicity, organism-based, Sprague-Dawley
Set-up: regimen Daily Repeat, gender Male, age 6 weeks
Settings: in vivo, po, 0 mg/kg, […], tissue Kidney, route gavage, dose level Control, time 7 day
Quantity Measured: KIDNEY_L

# batch size: 5; output KIDNEY_L per entry
1. Cc1cccc(Nc2ccccc2C(=O)O)c1C [MEFENAMIC ACID]
2. CN(C)[C@@H]1C(O)=C(C(N)=O)C(=O)[C@@]2(O)C(O)=C3C(=O)c4c(O)cccc4[C@@](C)(O)[C@H]3C[C@@H]12 [TETRACYCLINE]
3. CN1C(C(=O)Nc2ccccn2)=C(O)c2sc(Cl)cc2S1(=O)=O [LORNOXICAM]
4. Clc1c(Cl)c(Cl)c(Cl)c(Cl)c1Cl [PERCHLOROBENZENE]
5. CC(CN1c2ccccc2Sc2ccccc21)N(C)C (centres undefined) [PROMETHAZINE]

1.1 g
1 g
1.2 g
1.1 g
1.2 g

# batch size: 4; output KIDNEY_L per entry
1. C#C[C@]1(O)CC[C@H]2[C@@H]3CCC4=Cc5oncc5C[C@]4(C)[C@H]3CC[C@@]21C [DANAZOL]
2. CC(=O)Nc1nnc(S(N)(=O)=O)s1 [ACETAZOLAMIDE]
3. C1CCC(C(CC2CCCCN2)C2CCCCC2)CC1 (centres undefined) [PERHEXILINE]
4. CCOC(=O)[C@H](CCc1ccccc1)N[C@@H](C)C(=O)N1CCC[C@H]1C(=O)O

1. 1.1 g
2. 1 g
3. 1.1 g
4. 1.2 g

* * *

Species on record: Rattus norvegicus
Assay: Open TG-GATES - Regimen: Daily Repeat
Type: toxicity, organism-based, Sprague-Dawley
Set-up: regimen Daily Repeat, gender Male, age 6 weeks
Settings: in vivo, po, 0 mg/kg, […], tissue Plasma, route gavage, dose level Control, time 28 day
Quantity Measured: Cl (meq/L)
Give bare numbers, in meq/L.

| Molecule | Measurement Units | Cl |
| --- | --- | --- |
| CC(CN1c2ccccc2Sc2ccccc21)N(C)C (centres undefined) [PROMETHAZINE] | meq/L | 104.8 |

# batch size: 7; output Cl per entry
1. CN(C)[C@@H]1C(O)=C(C(N)=O)C(=O)[C@@]2(O)C(O)=C3C(=O)c4c(O)cccc4[C@@](C)(O)[C@H]3C[C@@H]12 [TETRACYCLINE]
2. Cc1cccc(Nc2ccccc2C(=O)O)c1C [MEFENAMIC ACID]
3. CN1C(C(=O)Nc2ccccn2)=C(O)c2sc(Cl)cc2S1(=O)=O [LORNOXICAM]
4. CC(=O)Nc1nnc(S(N)(=O)=O)s1 [ACETAZOLAMIDE]
5. Clc1c(Cl)c(Cl)c(Cl)c(Cl)c1Cl [PERCHLOROBENZENE]
6. O=C(O)Cc1ccccc1Nc1c(Cl)cccc1Cl [DICLOFENAC]
7. CCOC(=O)[C@H](CCc1ccccc1)N[C@@H](C)C(=O)N1CCC[C@H]1C(=O)O

[106.2, 103.4, 103.8, 105.4, 105.4, 101.8, 107.2]

Please supply the value of reported Cl for the item C1CCC(C(CC2CCCCN2)C2CCCCC2)CC1 (centres undefined) [PERHEXILINE]
108.6
